assay: small molecules boosting NK-mediated OVCAR3 lysis – imaging, primary NK cells, calcein-AM imaging, primary screen (AID 1508625); details: OVCAR3 lysis by primary NK cells, at 5 µM;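 also: compound given to NK cells 16 h before adding targets at 1.5 to 1 ratio; reference of the scale not given here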
measured.metric: corrected activity, negative = more killing (%)
Output spec: scalar in %, unitless text.

Dear colleague, I am looking for the recorded corrected activity, negative = more killing of the following compound: CCOC(=O)CCN1C(=O)C(=Cc2cccc(OC)c2)SC1=S
-4.87

Dear colleague, I am looking for the recorded corrected activity, negative = more killing of the following compound: Cc1cc(C)c(CSc2nnc(C)s2)c(C)c1
-5.76

Dear colleague, I am looking for the recorded corrected activity, negative = more killing of the following compound: Cc1c(C(=O)Oc2cccc3ccccc23)cccc1[N+](=O)[O-]
-7.35

Dear colleague, I am looking for the recorded corrected activity, negative = more killing of the following compound: CCOc1ccccc1C(=O)N1CCN(c2ccccc2OCC)CC1
-2.5

Dear colleague, I am looking for the recorded corrected activity, negative = more killing of the following compound: O=C(c1ccccc1F)N1CCN(c2cc(N3CCCCC3)c(F)cc2[N+](=O)[O-])CC1
-2.72

Dear colleague, I am looking for the recorded corrected activity, negative = more killing of the following compound: Cc1cc2oc(=O)c3c(c2c2occ(-c4ccc(Br)cc4)c12)CCC3
-4.94

src = PubChem BioAssay AID1508625
